test: AUC in BALB/c mouse at 13.5 mg/kg, po measured by LC-MS/MS analysis; assay type: ADME, organism-based; set-up: dose 13.5 mg/kg; details: in vivo
Observed Property: AUC (nM·h)
Numeric only. Scale: nM·h

Incoming: Query AUC for CC(=O)N1CCN([C@H]2C[C@@H](n3cc(-c4cc(O)ccc4F)c4c(N)ncnc43)C2)CC1
Outgoing: 300

----------
assay: Half life in BALB/c mouse at 10 mg/kg, po measured by LC-MS/MS analysis; assay type: ADME, organism-based; details: in vivo
Observed Property: half-life (h)
Numeric only. Scale: h

Incoming: Query half-life for COC(=O)N[C@H]1CC[C@@H](n2cc(-c3ccc(Cl)c(N)c3)c3c(N)ncnc32)CC1
Outgoing: 3.7

Incoming: Query half-life for CC(=O)N1CCN([C@H]2C[C@@H](n3cc(-c4ccc(Cl)c(N)c4)c4c(N)ncnc43)C2)CC1
Outgoing: 2.4

Incoming: Query half-life for COC(=O)NC12CCC(n3cc(-c4ccc(Cl)c(N)c4)c4c(N)ncnc43)(CC1)CC2
Outgoing: 22

Incoming: Query half-life for COC(=O)NC12CCC(n3cc(-c4cc(N)c(Cl)cc4F)c4c(N)ncnc43)(CC1)CC2
Outgoing: 19
